- TARGET_OR_SYSTEM: Protein farnesyltransferase (Rattus norvegicus)
- PROTOCOL: Concentration required to displace 50% of a potent radiolabeled FTI from farnesyl transferase in cultured H-ras-transformed Rat1 cells

| STRUCTURE_STRING | TARGET_OR_SYSTEM | IC50 [nM] |
| --- | --- | --- |
| N#Cc1ccc(Cn2cncc2CN[C@H]2CCN(Cc3ccccc3Cl)C2=O)cc1 | Protein farnesyltransferase (Rattus norvegicus) | 2.7 |
| N#Cc1ccc(Cn2cncc2CN[C@H]2CCN(c3cccnc3)C2=O)cc1 | Protein farnesyltransferase (Rattus norvegicus) | 240 |
| CCSc1ncccc1C(=O)N1CC[C@H](NCc2cncn2Cc2ccc(C#N)cc2)C1 | Protein farnesyltransferase (Rattus norvegicus) | 6.2 |
| N#Cc1ccc(Cn2cncc2CN[C@H]2CCN(C(=O)c3cccc4ccccc34)C2)cc1 | Protein farnesyltransferase (Rattus norvegicus) | 330 |
| N#Cc1ccc(Cn2cncc2CN[C@H]2CCN(c3ccc(Cl)cc3)C2=O)cc1 | Protein farnesyltransferase (Rattus norvegicus) | 30 |
| N#Cc1ccc(Cn2cncc2CN[C@H]2CCN(C(=O)c3ccc(Cl)cc3)C2)cc1 | Protein farnesyltransferase (Rattus norvegicus) | 70 |
| N#Cc1ccc(Cn2cncc2CN[C@H]2CCN(c3ccncc3)C2=O)cc1 | Protein farnesyltransferase (Rattus norvegicus) | 200 |
| N#Cc1ccc(Cn2cncc2CN(CCCN)[C@H]2CCN(Cc3cccc(Cl)c3)C2=O)cc1 | Protein farnesyltransferase (Rattus norvegicus) | 150 |
